Molecular target: HIV-1 RT-associated RNase H (Human immunodeficiency virus type 1 group M subtype B)
Assay: HIV-1 DNA polymerase-independent RNase H activity determination (wt RT)
Type: biochemical
Details: wt RT; read-out: IC50, HIV-1 RT-associated RNase H activity
property: pIC50
// returns pIC50 (minus log10 of molar concentration), number only

1. O=c1oc(-c2ccc(O)c(O)c2)nc2sc3c(c12)CCC3 [Compound 21] : 6.00
2. O=c1oc(-c2ccc(O)c(O)c2)nc2sc3c(c12)CCCC3 [Compound 20] : 5.47
3. Nc1sc2c(c1C(=O)Nc1ccc(Cl)cc1)CCCCC2 [Compound 5] : 4.78

Next compound, pIC50 to be filled in.
Measured pIC50 of COc1ccccc1C(=O)Nc1sc2c(c1C(N)=O)CCCCC2 [Compound 7] : 4.85
